Tested on: HCT-116
experimentNotes: Cytotoxicity against human HCT116 cells assessed as growth inhibition after 72 hrs by MTT assay
Type: functional, cell-based
conditionParameters: HCT-116, 72 h
observationType: pIC50
# pIC50 is unitless: minus log10 of the molar concentration; print number only

Query: Identify measured pIC50 associated with "COc1ccc2c(c1)/C(=N/NC(=S)N1CCN(c3ccccc3)CC1)C(=O)N2"
Response: 5.02

Query: Identify measured pIC50 associated with "O=C1Nc2ccc(Cl)cc2/C1=N/NC(=S)N1CCN(c2ccccc2Cl)CC1"
Response: 5.31

Query: Identify measured pIC50 associated with "O=C1Nc2ccc(Cl)cc2/C1=N/NC(=S)N1CCN(c2ccc(Cl)c(Cl)c2)CC1"
Response: 5.24

Query: Identify measured pIC50 associated with "O=C1Nc2ccc(Cl)cc2/C1=N/NC(=S)N1CCN(c2ccccc2)CC1"
Response: 5.46

Query: Identify measured pIC50 associated with "O=C1Nc2ccc(Cl)cc2/C1=N/NC(=S)N1CCN(c2ccccc2F)CC1"
Response: 5.08

Query: Identify measured pIC50 associated with "Cc1ccc(N2CCN(C(=S)N/N=C3\C(=O)Nc4ccc(Cl)cc43)CC2)c(C)c1"
Response: 5.14

Query: Identify measured pIC50 associated with "O=C1Nc2cccc(Br)c2/C1=N/NC(=S)N1CCN(c2ccccc2)CC1"
Response: 4.47

Query: Identify measured pIC50 associated with "O=C1Nc2cccc(Cl)c2/C1=N/NC(=S)N1CCN(c2ccccc2)CC1"
Response: 4.38

* * *

System: MCF7
experimentNotes: Cytotoxicity against human MCF7 cells assessed as growth inhibition after 72 hrs by MTT assay
Assay type: functional, cell-based
conditionParameters: MCF7, 72 h
observationType: pIC50
# pIC50 is unitless: minus log10 of the molar concentration; print number only

Query: Identify measured pIC50 associated with "O=C1Nc2ccc(Cl)cc2/C1=N/NC(=S)N1CCN(c2ccccc2F)CC1"
Response: 4.82

Query: Identify measured pIC50 associated with "O=C1Nc2ccc(Cl)cc2/C1=N/NC(=S)N1CCN(c2ccc(Cl)c(Cl)c2)CC1"
Response: 4.97

Query: Identify measured pIC50 associated with "O=C1Nc2c(Br)cc(Br)cc2/C1=N/NC(=S)N1CCN(c2ccccc2)CC1"
Response: 4.94

Query: Identify measured pIC50 associated with "O=C1Nc2ccc(Cl)cc2/C1=N/NC(=S)N1CCN(c2ccc(F)cc2)CC1"
Response: 4.91

Query: Identify measured pIC50 associated with "COc1ccc(N2CCN(C(=S)N/N=C3\C(=O)Nc4ccc(Cl)cc43)CC2)cc1"
Response: 4.86

Query: Identify measured pIC50 associated with "O=C1Nc2ccc([N+](=O)[O-])cc2/C1=N/NC(=S)N1CCN(c2ccccc2)CC1"
Response: 4.63

Query: Identify measured pIC50 associated with "O=C1Nc2ccc(Br)cc2/C1=N/NC(=S)N1CCN(c2ccccc2)CC1"
Response: 4.69

Query: Identify measured pIC50 associated with "Cc1ccc2c(c1)/C(=N/NC(=S)N1CCN(c3ccccc3)CC1)C(=O)N2"
Response: 4.83

Query: Identify measured pIC50 associated with "O=C1Nc2ccc(Cl)cc2/C1=N/NC(=S)N1CCN(c2ccccc2[N+](=O)[O-])CC1"
Response: 5.13

Query: Identify measured pIC50 associated with "O=C1Nc2ccc(Cl)cc2/C1=N/NC(=S)N1CCN(c2ccccc2Cl)CC1"
Response: 4.93

Query: Identify measured pIC50 associated with "O=C1Nc2ccccc2/C1=N/NC(=S)N1CCN(c2ccccc2)CC1"
Response: 4.60

Query: Identify measured pIC50 associated with "O=C1Nc2cccc(Cl)c2/C1=N/NC(=S)N1CCN(c2ccccc2)CC1"
Response: 4.28

Query: Identify measured pIC50 associated with "Cc1ccccc1N1CCN(C(=S)N/N=C2\C(=O)Nc3ccc(Cl)cc32)CC1"
Response: 4.96

Query: Identify measured pIC50 associated with "O=C1Nc2ccc(F)cc2/C1=N/NC(=S)N1CCN(c2ccccc2)CC1"
Response: 4.61

Query: Identify measured pIC50 associated with "COc1ccc2c(c1)/C(=N/NC(=S)N1CCN(c3ccccc3)CC1)C(=O)N2"
Response: 4.84

Query: Identify measured pIC50 associated with "O=C1Nc2cccc(Br)c2/C1=N/NC(=S)N1CCN(c2ccccc2)CC1"
Response: 4.39

Query: Identify measured pIC50 associated with "Cc1ccc(N2CCN(C(=S)N/N=C3\C(=O)Nc4ccc(Cl)cc43)CC2)c(C)c1"
Response: 4.97

Query: Identify measured pIC50 associated with "O=C1Nc2ccc(Cl)cc2/C1=N/NC(=S)N1CCN(c2ccc(F)cc2F)CC1"
Response: 4.70

Query: Identify measured pIC50 associated with "O=C1Nc2ccc(Cl)cc2/C1=N/NC(=S)N1CCN(c2ccccc2)CC1"
Response: 4.98

Query: Identify measured pIC50 associated with "O=C1Nc2ccc(Cl)cc2/C1=N/NC(=S)N1CCN(c2ccc([N+](=O)[O-])cc2)CC1"
Response: 4.68

* * *

Answer each item with its documented pIC50.
Test system: HCT-116
experimentNotes: Cytotoxicity against human HCT116 cells assessed as growth inhibition after 72 hrs by MTT assay
Assay type: functional, cell-based
conditionParameters: HCT-116, 72 h
# pIC50 is unitless: minus log10 of the molar concentration; print number only

Query: Identify measured pIC50 associated with "O=C1Nc2c(Br)cc(Br)cc2/C1=N/NC(=S)N1CCN(c2ccccc2)CC1"
Response: 5.20

Query: Identify measured pIC50 associated with "O=C1Nc2ccc(Cl)cc2/C1=N/NC(=S)N1CCN(c2ccccc2[N+](=O)[O-])CC1"
Response: 5.34

Query: Identify measured pIC50 associated with "O=C1Nc2ccc(Cl)cc2/C1=N/NC(=S)N1CCN(c2ccc(F)cc2)CC1"
Response: 5.20

Query: Identify measured pIC50 associated with "O=C1Nc2ccc(F)cc2/C1=N/NC(=S)N1CCN(c2ccccc2)CC1"
Response: 4.91

Query: Identify measured pIC50 associated with "O=C1Nc2ccc(Cl)cc2/C1=N/NC(=S)N1CCN(c2ccc([N+](=O)[O-])cc2)CC1"
Response: 4.92

Query: Identify measured pIC50 associated with "O=C1Nc2ccc(Cl)cc2/C1=N/NC(=S)N1CCN(c2ccc(F)cc2F)CC1"
Response: 5.23

Query: Identify measured pIC50 associated with "COc1ccc(N2CCN(C(=S)N/N=C3\C(=O)Nc4ccc(Cl)cc43)CC2)cc1"
Response: 5.11

Query: Identify measured pIC50 associated with "O=C1Nc2cc(Br)ccc2/C1=N/NC(=S)N1CCN(c2ccccc2)CC1"
Response: 4.84

Query: Identify measured pIC50 associated with "O=C1Nc2ccc(Br)cc2/C1=N/NC(=S)N1CCN(c2ccccc2)CC1"
Response: 4.98

Query: Identify measured pIC50 associated with "O=C1Nc2cc(Cl)ccc2/C1=N/NC(=S)N1CCN(c2ccccc2)CC1"
Response: 4.75

Query: Identify measured pIC50 associated with "CCN(CC)CCNC(=O)c1c(C)[nH]c(/C=C2\C(=O)Nc3ccc(F)cc32)c1C"
Response: 5.33

Query: Identify measured pIC50 associated with "O=C1Nc2ccccc2/C1=N/NC(=S)N1CCN(c2ccccc2)CC1"
Response: 4.95

Query: Identify measured pIC50 associated with "Cc1ccc2c(c1)/C(=N/NC(=S)N1CCN(c3ccccc3)CC1)C(=O)N2"
Response: 5.02

Query: Identify measured pIC50 associated with "O=C1Nc2ccc([N+](=O)[O-])cc2/C1=N/NC(=S)N1CCN(c2ccccc2)CC1"
Response: 4.82

Query: Identify measured pIC50 associated with "Cc1ccc(N2CCN(C(=S)N/N=C3\C(=O)Nc4ccc(Cl)cc43)CC2)cc1"
Response: 5.19

Query: Identify measured pIC50 associated with "Cc1ccccc1N1CCN(C(=S)N/N=C2\C(=O)Nc3ccc(Cl)cc32)CC1"
Response: 5.31

Query: Identify measured pIC50 associated with "O=C1Nc2ccc(Cl)cc2/C1=N/NC(=S)N1CCN(c2ccc(Cl)cc2)CC1"
Response: 5.27

Query: Identify measured pIC50 associated with "O=C1Nc2ccc(Cl)cc2/C1=N/NC(=S)Nc1ccccc1"
Response: 4.51
